Target: bovine trypsin (Bos taurus, UniProt P00760)
Sequence (P00760 24-246): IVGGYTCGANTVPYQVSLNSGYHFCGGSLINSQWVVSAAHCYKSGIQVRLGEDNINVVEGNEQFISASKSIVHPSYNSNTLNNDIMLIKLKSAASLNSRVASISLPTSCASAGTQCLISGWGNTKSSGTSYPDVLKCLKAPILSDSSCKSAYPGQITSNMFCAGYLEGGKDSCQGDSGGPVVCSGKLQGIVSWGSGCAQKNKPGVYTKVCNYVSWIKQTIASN
Assay: Trypsin inhibitory activity of peptides (BApNA hydrolysis, OD405; IC50, Ki, residual activity)
Type: biochemical
Conditions: peptide 97.56 μM
Bridge positions count the residues as written; N and C are the ends. Square brackets hold non-standard residues; d marks the D form. Peptide text beside a SMILES is read from it. Nle = CCCC[C@H](N)C(=O)O
measuredAttribute: Residual trypsin activity (%)
Numbers only; they are read as %.

Illustrative cases are given below, each with its answer.
# compound, Residual trypsin activity (%)
measured = [
    ("CCCC[C@@H]1NC(=O)[C@H](CO)NC(=O)[C@H](CCCCN)NC(=O)[C@H]([C@@H](C)O)NC(=O)[C@H](C)NC(=O)[C@H](CCCNC(=N)N)NC(=O)CNC(=O)[C@@H](N)CSSC[C@@H](C(=O)N[C@@H](Cc2ccccc2)C(=O)O)NC(=O)[C@H]([C@@H](C)CC)NC(=O)[C@@H]2CCCN2C(=O)[C@@H]2CCCN2C1=O [BT28] (H-CGRATKS[Nle]PPICF-OH; disulfide 1-12; C-terminus assumed)", 0.0),
    ("CC[C@H](C)[C@@H]1NC(=O)[C@@H]2CCCN2C(=O)[C@@H]2CCCN2C(=O)[C@H]([C@@H](C)CC)NC(=O)[C@H](CO)NC(=O)[C@H](CCCCN)NC(=O)[C@H]([C@@H](C)O)NC(=O)[C@H](C)NC(=O)[C@H]([C@@H](C)O)NC(=O)CNC(=O)[C@@H](N)CSSC[C@@H](C(=O)N[C@@H](Cc2ccccc2)C(=O)O)NC1=O [BT25] (H-CGTATKSIPPICF-OH; disulfide 1-12; C-terminus assumed)", 0.2),
]

Prompt: State its Residual trypsin activity: CCCC[C@@H]1NC(=O)[C@H](CCCNC(=N)N)NC(=O)CNC(=O)[C@@H](N)CSSC[C@@H](C(=O)N[C@@H](Cc2ccccc2)C(=O)O)NC(=O)[C@H]([C@@H](C)CC)NC(=O)[C@@H]2CCCN2C(=O)[C@@H]2CCCN2C(=O)[C@H]([C@@H](C)CC)NC(=O)[C@H](CO)NC(=O)[C@H](CCCCN)NC(=O)[C@H]([C@@H](C)O)NC1=O [BT50] (H-CGR[Nle]TKSIPPICF-OH; disulfide 1-12; C-terminus assumed)
Completion: 0.0
